Data origin, for the record: ChEMBL document CHEMBL4665846

Entries annotated with measured pIC50
biological target: Thioredoxin reductase 1, cytoplasmic (Homo sapiens, UniProt Q16881); experiment: Inhibition of TrxR in human BEL-7402/5-FU cells by colorimetric assay; format: cell-based
Sequence (Q16881 whole entry): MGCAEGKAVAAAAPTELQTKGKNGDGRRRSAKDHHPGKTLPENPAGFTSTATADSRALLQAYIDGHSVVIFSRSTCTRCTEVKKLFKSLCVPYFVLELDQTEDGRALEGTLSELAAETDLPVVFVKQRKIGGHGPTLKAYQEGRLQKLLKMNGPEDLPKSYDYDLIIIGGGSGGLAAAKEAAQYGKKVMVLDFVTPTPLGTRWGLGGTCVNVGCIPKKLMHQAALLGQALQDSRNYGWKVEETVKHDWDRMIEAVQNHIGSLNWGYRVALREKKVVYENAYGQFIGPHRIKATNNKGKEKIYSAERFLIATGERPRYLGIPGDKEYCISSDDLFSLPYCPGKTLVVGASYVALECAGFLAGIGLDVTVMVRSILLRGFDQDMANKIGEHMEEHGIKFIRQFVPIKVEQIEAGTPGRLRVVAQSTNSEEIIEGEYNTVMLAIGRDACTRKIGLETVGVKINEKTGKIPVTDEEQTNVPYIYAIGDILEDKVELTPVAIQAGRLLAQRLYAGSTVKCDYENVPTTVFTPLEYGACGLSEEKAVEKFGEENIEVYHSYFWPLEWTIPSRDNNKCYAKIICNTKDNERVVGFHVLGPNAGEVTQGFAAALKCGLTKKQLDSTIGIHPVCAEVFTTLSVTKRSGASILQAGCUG
# pIC50 = -log10(concentration in molar units)

Some entries whose results are on file:
1. COc1cc(/C=C/C=C2\CCC=CC2=O)ccc1O ... 6.70
2. CN(C)c1ccc(/C=C/C=C2\CCC=CC2=O)cc1 ... 6.70
3. COc1ccc(/C=C/C=C2\CCC=CC2=O)cc1 ... 6.40

Let's switch to this compound now.
Ask | // lookup pIC50 for `O=C1C=CCC/C1=C\C=C\c1ccc(F)cc1`
Reply | 6.22

====

assay: Selectivity ratio of IC50 for cytotoxicity against human L02 cells to IC50 for cytotoxicity against human Bel-7402 cells; assay type: toxicity, cell-based; conditions: L02 cells and Bel-7402 cells, read-out: Ratio IC50
METRIC NAME: selectivity ratio
Form: value (number only, do not type unit).

Ask | Reported selectivity ratio, compound `COc1cc(/C=C/C=C2\CCC=CC2=O)ccc1O` : ____
Reply | 6

====

tested on: HGC-27; test: Cytotoxicity against human HGC-27 cells assessed as reduction in cell viability after 72 hrs by MTT assay; type: functional, cell-based; conditions: HGC-27, 72 h
Listing of recorded pIC50 by entry.
Please keep in mind that pIC50 is minus log10 of the molar concentration; only the number is needed.

1. COc1ccccc1/C=C/C=C1\CCC=CC1=O ... 5.51
2. CC(=C\c1ccccc1)/C=C1\CCC=CC1=O ... 5.28
3. O=C1C=CCC/C1=C\C=C\c1ccc(F)cc1 ... 5.64
4. O=C1C=CCC/C1=C\C=C\c1ccccc1 ... 5.35
5. Cc1ccc(/C=C/C=C2\CCC=CC2=O)cc1 ... 5.09
6. CN(C)c1ccc(/C=C/C=C2\CCC=CC2=O)cc1 ... 5.82

Could you now consider this next compound?
Ask | Which value of pIC50 has been reported for `COc1cc(/C=C/C=C2\CCC=CC2=O)ccc1O` in the records?
Reply | 5.92
